System: Candida albicans
experimental-protocol: Antifungal activity was determined against Candida albicans
Format: functional
observation-type: MIC

>>> val("Cn1cc(NC(=O)c2cc(NC(=O)c3cc(NC(=O)c4nsc(NCCCO)c4Cl)cn3C)cn2C)cc1C(=O)NCCN1CCOCC1")
"> 32 µg/mL"
>>> val("Cn1cc(NC(=O)c2cc(NC(=O)c3cc(NC(=O)c4nsc(NCCN5CCOCC5)c4Cl)cn3C)cn2C)cc1C(=O)NCCc1ccncc1")
"> 32 µg/mL"
>>> val("CCOCCCNc1snc(C(=O)Nc2cc(C(=O)Nc3cc(C(=O)Nc4cc(C(=O)NCCN5CCOCC5)n(C)c4)n(C)c3)n(C)c2)c1Cl")
"> 32 µg/mL"
>>> val("Cn1cc(NC(=O)c2cc(NC(=O)c3cc(NC(=O)c4nsc(NCCN5CCOCC5)c4Cl)cn3C)cn2C)cc1C(=O)NCCN1CCOCC1")
"> 32 µg/mL"
>>> val("Cn1cc(NC(=O)c2cc(NC(=O)c3cc(NC(=O)c4nsc(NCCc5ccccn5)c4Cl)cn3C)cn2C)cc1C(=O)NCCN1CCOCC1")
"> 32 µg/mL"
>>> val("CN(C)CCCNC(=O)c1cc(NC(=O)c2cc(NC(=O)c3cc(NC(=O)c4nsc(NCCCCCCCN)c4Cl)cn3C)cn2C)cn1C")
"> 32 µg/mL"
